Just for reference, patent US11471430B2 is where these values come from.

# target.or.test.system: UniProt:Q8N5B7
# Sequence (Q8N5B7 whole entry, species assumed): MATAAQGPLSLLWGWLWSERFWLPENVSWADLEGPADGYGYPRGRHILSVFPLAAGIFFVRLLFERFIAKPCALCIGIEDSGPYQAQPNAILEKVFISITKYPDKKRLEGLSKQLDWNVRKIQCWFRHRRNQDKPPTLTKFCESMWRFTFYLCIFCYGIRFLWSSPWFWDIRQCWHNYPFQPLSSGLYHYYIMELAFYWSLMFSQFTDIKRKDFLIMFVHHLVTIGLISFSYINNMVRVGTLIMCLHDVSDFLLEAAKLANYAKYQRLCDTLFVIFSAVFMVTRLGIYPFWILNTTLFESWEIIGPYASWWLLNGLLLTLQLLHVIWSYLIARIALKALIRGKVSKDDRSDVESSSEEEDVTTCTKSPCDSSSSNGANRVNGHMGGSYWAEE
# assay.name: Inhibition of ceramide synthesis (CerS5) measured in vitro
# Format: biochemical
# Protocol: Ceramide synthase assays were carried out as follows. Cell homogenates were incubated with 15 μM NBD-SPH, 20 μM defatted bovine serum albumin, and 50 μM fatty acyl CoA in a 20 μl reaction volume at 37° C. Reactions were terminated by addition of chloroform/methanol (1:2, v/v) and lipids extracted. […] NBD-labelled lipids were visualized using a Typhoon 9410 variable mode imager and quantified by ImageQuantTL (GE Healthcare, Chalfont St Giles, UK).
measurement.name: CerS5 activity (% of control)

>>> observed_value("CCCCCCCCCCCCCCC[C@H](O)[C@H](CO)N(C)C")
"92.9 ± 28.7 % of control"
>>> observed_value("CCCCCCCCCCCCCCC[C@H](N)[C@H](N)CN")
"111.3 ± 34.9 % of control"
>>> observed_value("CCCCCCCCCCCCCCC[C@H](N)[C@H](CN)N(C)C")
"58.1 ± 20.1 % of control"
>>> observed_value("CCCCCCCCCCCCCCC[C@@H](N)[C@H](CN)N(C)C")
"69.2 ± 8.9 % of control"
>>> observed_value("CCCCCCCCCCCCCCC[C@@H](O)[C@H](N)CN")
"125.0 ± 31.1 % of control"

## Task Param readout= CerS5 activity (% of control); system= UniProt:Q8N5B7; entry= CCCCCCCCCCCCCCC[C@@H](O)[C@@H](N)CO [sphinganine, reference compound] ; returns value.
## Result 100 ± 0 % of control

====

# target.or.test.system: UniProtKB Q8N5B7
# assay.name: N-acylation by CerS5 using labeled palmitoyl CoA, relative to sphinganine
# Format: biochemical
# reported.conditions: CerS5, labeled palmitoyl CoA, n=1-2
measurement.name: Rate of N-Acylation
Please state the number and follow it with the unit.

Here is how some compounds turned out for Rate of N-Acylation.
>>> observed_value("CCCCCCCCCCCCCCC[C@@H](O)[C@H](N)CN")
"18.8 ± 12.3 pmol/mg/min"
>>> observed_value("CCCCCCCCCCCCCCC[C@@H](N)[C@H](CN)N(C)C")
"4.1 ± 3.0 pmol/mg/min"
>>> observed_value("CCCCCCCCCCCCCCC[C@H](N)[C@H](N)CN")
"10.4 ± 10.1 pmol/mg/min"

## Task Param item = `CCCCC/C=C\C/C=C\CCCCCCCC[C@H](O)[C@@H](N)CO` ; retrieve measured Rate of N-Acylation.
## Result 146.9 ± 0.0 pmol/mg/min
